Exercise: for every item that follows, state its recorded melting point.

Recorded results for 3 compounds are shown here.
>>> result("S=C(NCCC1=CCCCC1)Nc1ccc(Br)cn1 [HI-346]")
"172 to 173 °C"
>>> result("FC(F)(F)c1ccc(NC(=S)NCCC2=CCCCC2)nc1 [HI-347]")
"161 to 162 °C"
>>> result("S=C(NCCC1=CCCCC1)Nc1ccc(Cl)cn1 [HI-445]")
"165 °C"

I am curious: what melting point value has been reported for CC1(C)C2CCC(CNC(=S)Nc3ccc(Br)cn3)C1C2 (stereo not shown) [HI-444] ?
180 to 181 °C

* * *

# Test system: multidrug resistant HIV-1 strain RT-MDR
# TEST: microbe, parasite or virus in culture
# Format: cell-based
# RUN PARAMETERS: Human immunodeficiency virus 1, PBMC, read-out: IC50 against RT-MDR
# Description: In addition, the anti-HIV activity of the compounds was measured by determining their ability to inhibit the replication of the HIV-1 strains HTLVIIIB, RT-MDR, A17, and A17 variant in peripheral blood mononuclear cells (PBMC) from healthy volunteer donors, using the method described in Uckun et.al., 1998, Antimicrobial Agents and Chemotherapy 42:383. […]
I'd be grateful if you could share measured pIC50 for these entries.
Answers are plain numbers, as −log10 of the molar value.

Below are worked cases with known answers.
>>> result_number("S=C(NCCC1=CCCCC1)Nc1ccc(Cl)cn1 [HI-445]")
9.00
>>> result_number("Cc1ccnc2c1NC(=O)c1cccnc1N2C1CC1 [Nevirapine, reference compound]")
5.30

Required: pIC50, one value per compound below.
1. CCOCn1c(Cc2ccccc2)c(C(C)C)c(=O)[nH]c1=O [MKC-442, reference compound]
2. CC(C)Nc1cccnc1N1CCN(C(=O)c2cc3cc(NS(C)(=O)=O)ccc3[nH]2)CC1 [Delavirdine, reference compound]
3. S=C(NCCC1=CCCCC1)Nc1ccc(Br)cn1 [HI-346]

[6.52, 6.40, 9.00]

* * *

# TEST: Microculture tetrazolium assay (MTA, XTT) for cytotoxicity
# Format: cell-based
# RUN PARAMETERS: cytotoxicity, XTT
Please respond with reported CC50 for every item in the list.

Reference set, count: 2
>>> result("S=C(NCCC1=CCCCC1)Nc1ccc(Cl)cn1 [HI-445]")
"> 100 µM"
>>> result("CC(C)Nc1cccnc1N1CCN(C(=O)c2cc3cc(NS(C)(=O)=O)ccc3[nH]2)CC1 [Delavirdine, reference compound]")
"3.6 µM"

Shifting focus to the molecule that follows.
Suppose we examine the molecule Cc1cn([C@H]2C[C@H](N=[N+]=[N-])[C@@H](CO)O2)c(=O)[nH]c1=O [AZT, reference compound] ; what CC50 value has been reported?
> 100 µM

* * *

# Tested on: multidrug resistant HIV-1 strain RT-MDR
# TEST: microbe, parasite or virus in culture
# Format: cell-based
# RUN PARAMETERS: Human immunodeficiency virus 1, PBMC, 168 h, read-out: IC50 RT-MDR
RESULT TYPE: pIC50
Give bare numbers, as −log10 of the molar value.

Example results:
>>> result_number("S=C(NCCC1=CCCCC1)Nc1ccc(Cl)cn1")
9.00
>>> result_number("FC(F)(F)c1ccc(NC(=S)NCCC2=CCCCC2)nc1")
7.42
>>> result_number("Cc1ccnc2c1NC(=O)c1cccnc1N2C1CC1 [Nevirapine, reference compound]")
5.30
>>> result_number("CCOCn1c(Cc2ccccc2)c(C(C)C)c(=O)[nH]c1=O [MKC-442, reference compound]")
6.52

Count: 2. Required value per item: pIC50.
1. S=C(NCCC1=CCCCC1)Nc1ccc(Br)cn1
2. CC(C)Nc1cccnc1N1CCN(C(=O)c2cc3cc(NS(C)(=O)=O)ccc3[nH]2)CC1 [Delavirdine, reference compound]

9.00
6.40
